molecules and their reported Papp A→B
Test: Apparent permeability of the compound from apical to basolateral side of MDCK cells
Assay type: ADME, cell-based, Canis lupus familiaris
Details: dog
The reply should contain only the number, in ×10⁻⁶ cm/s.

Some solved entries appear below for comparison.
molecule=O=c1[nH]ccc2c(NC3CCCC3)ncnc12 measuredendpoint="Papp A→B" measvalue=2.5
molecule="CCc1nc(N[C@@H]2CCC[C@@H]2C#N)c2cc[nH]c(=O)c2n1 (racemic)" measuredendpoint="Papp A→B" measvalue=0.6

Attention now shifts to the item below.
Query: Form field: reported Papp A→B of N#C[C@H]1CCC[C@H]1Nc1nc(-c2cn[nH]c2)nc2c(=O)[nH]ccc12 (racemic)
Result: 0.2
